# TEST NAME: Quantitative High-Throughput drug screen in 47 multiple myeloma cell lines against the NCATS MIPE library collection: ARP1_JJKsccF8 cell viability assay (AID 1918928; note: nearly all actives have a fitted effect of over 40% in size)
# CONDITION: ARP1 myeloma cells viability, CellTiter-Glo ATP, 48 h; series mostly up to 45.8 µM
Records with an inconclusive call do not appear. Activity calls are given as the source filed them. Calls come from the whole dose curve; as a rule, active = well fitted cell-killing curve with a large enough effect; inconclusive = small, poorly fitted or top-dose-only effect, or effect the other way; inactive = no such curve, though single readings can be large or run the other way.
Labels: true = active, false = inactive

| COMPOUND | GROUP |
| --- | --- |
| C[C@@H]1O[C@@H](O[C@H]2CC[C@@]3(C)[C@H](CC[C@@H]4[C@H]3C[C@@H](O)[C@]3(C)[C@@H](C5=CC(=O)OC5)CC[C@]43O)C2)C[C@H](O)[C@@H]1O[C@H]1C[C@H](O)[C@H](O[C@H]2C[C@H](O)[C@@H](O)[C@@H](C)O2)[C@H](C)O1 (stereo in doubt) | true |
| O=S(=O)(NCCNCC=Cc1ccc(Br)cc1)c1cccc2cnccc12 | true |
| O=C(CCCN1CCN(c2ccc(F)cc2)CC1)NC1c2ccccc2CSc2ccccc21 (stereo not given) | true |
| Cc1cnc(Nc2cccc(CN3CCOCC3)c2)nc1Nc1cccc(S(=O)(=O)NC(C)(C)C)c1 | true |
| CCOC(=O)[C@H](CCc1ccccc1)N[C@@H](C)C(=O)N1CCCC1C(=O)O (stereo not given in full) | false |
